For each entry below, report its IC50 value.
The figure you give is taken to be in µM; do not add the unit.

Can you look up IC50 on Dual specificity protein kinase CLK3 (Homo sapiens, UniProt P49761) for O=C1NC(NC23CC4CC(CC(NC(=O)C5CC5)(C4)C2)C3)=N/C1=C\c1ccc2ncsc2c1 ?
0.658

Can you look up IC50 on Dual specificity protein kinase CLK3 (Homo sapiens, UniProt P49761) for O=C1NC(NC2CCCNC2=O)=N/C1=C\c1ccc2ncsc2c1 (racemic) ?
1.68

Can you look up IC50 on Dual specificity protein kinase CLK3 (Homo sapiens, UniProt P49761) for O=C1NC(Nc2cccc(OC(F)F)c2)=N/C1=C\c1ccc2ncsc2c1 ?
0.71

Can you look up IC50 on Dual specificity protein kinase CLK3 (Homo sapiens, UniProt P49761) for O=C1NC(N[C@@H]2CCC[C@@H]2O)=N/C1=C\c1ccc2ncsc2c1 (racemic) ?
0.537

Can you look up IC50 on Dual specificity protein kinase CLK3 (Homo sapiens, UniProt P49761) for COC(CNC1=N/C(=C\c2ccc3ncsc3c2)C(=O)N1)c1ccccc1 (racemic) ?
0.27

Can you look up IC50 on Dual specificity protein kinase CLK3 (Homo sapiens, UniProt P49761) for CC(C)C[C@H](COC1CC1)NC1=N/C(=C\c2ccc3ncsc3c2)C(=O)N1 ?
0.211

Can you look up IC50 on Dual specificity protein kinase CLK3 (Homo sapiens, UniProt P49761) for CN(C)C12CC3CC(CC(NC4=N/C(=C\c5ccc6ncsc6c5)C(=O)N4)(C3)C1)C2 ?
1.8

Can you look up IC50 on Dual specificity protein kinase CLK3 (Homo sapiens, UniProt P49761) for CN(C)CC(NC1=N/C(=C\c2ccc3ncsc3c2)C(=O)N1)c1ccccc1 (racemic) ?
4.12

Can you look up IC50 on Dual specificity protein kinase CLK3 (Homo sapiens, UniProt P49761) for CN1CCN(c2cnc(NC3=N/C(=C\c4ccc5ncsc5c4)C(=O)N3)nc2)CC1 ?
5.1

Can you look up IC50 on Dual specificity protein kinase CLK3 (Homo sapiens, UniProt P49761) for C[C@@H]1[C@H]2C[C@@H](C[C@H]1NC1=N/C(=C\c3ccc4ncsc4c3)C(=O)N1)C2(C)C ?
0.795

Can you look up IC50 on Dual specificity protein kinase CLK3 (Homo sapiens, UniProt P49761) for Cc1ccc(CNC2=N/C(=C\c3ccc4ncsc4c3)C(=O)N2)o1 ?
0.722

Can you look up IC50 on Dual specificity protein kinase CLK3 (Homo sapiens, UniProt P49761) for O=C1NC(NC2CCC(F)(F)C2)=N/C1=C\c1ccc2ncsc2c1 (racemic) ?
0.173

Can you look up IC50 on Dual specificity protein kinase CLK3 (Homo sapiens, UniProt P49761) for CN1CCN(c2ncc(NC3=N/C(=C\c4ccc5ncsc5c4)C(=O)N3)cn2)CC1 ?
1.92

Can you look up IC50 on Dual specificity protein kinase CLK3 (Homo sapiens, UniProt P49761) for CC[C@H](CO)NC1=N/C(=C\c2ccc3ncsc3c2)C(=O)N1 ?
1.15

Can you look up IC50 on Dual specificity protein kinase CLK3 (Homo sapiens, UniProt P49761) for Cc1ccc(CNC2=N/C(=C\c3ccc4ncsc4c3)C(=O)N2)c(C)c1 ?
0.518

Can you look up IC50 on Dual specificity protein kinase CLK3 (Homo sapiens, UniProt P49761) for O=C1NC(NC2CCCCC2)=N/C1=C\c1ccc2[nH]ncc2c1 ?
0.794

Can you look up IC50 on Dual specificity protein kinase CLK3 (Homo sapiens, UniProt P49761) for O=C1NC(N[C@@H]2CCCC[C@@H](O)C2)=N/C1=C\c1ccc2ncsc2c1 (racemic) ?
0.309

Can you look up IC50 on Dual specificity protein kinase CLK3 (Homo sapiens, UniProt P49761) for O=C1NC(NCc2nc3ccccc3s2)=N/C1=C\c1ccc2ncsc2c1 ?
7.01

Can you look up IC50 on Dual specificity protein kinase CLK3 (Homo sapiens, UniProt P49761) for O=C1NC(NC2CCC(F)(F)CC2)=N/C1=C\c1ccc2ncsc2c1 ?
0.467

Can you look up IC50 on Dual specificity protein kinase CLK3 (Homo sapiens, UniProt P49761) for CC(C)[C@@H]1CC[C@@H](C)C[C@H]1NC1=N/C(=C\c2ccc3ncsc3c2)C(=O)N1 ?
2.74

Can you look up IC50 on Dual specificity protein kinase CLK3 (Homo sapiens, UniProt P49761) for CN1CC[C@@](C)(NC2=N/C(=C\c3ccc4ncsc4c3)C(=O)N2)C1=O (stereo in doubt) ?
1.13

Can you look up IC50 on Dual specificity protein kinase CLK3 (Homo sapiens, UniProt P49761) for O=C1NC(NC23CC4CC(CC(C4)C2)C3)=N/C1=C\c1ccc2[nH]ncc2c1 ?
1.08

Can you look up IC50 on Dual specificity protein kinase CLK3 (Homo sapiens, UniProt P49761) for O=C1NC(N[C@@H]2CCCC[C@H](O)C2)=N/C1=C\c1ccc2ncsc2c1 (racemic) ?
0.646

Can you look up IC50 on Dual specificity protein kinase CLK3 (Homo sapiens, UniProt P49761) for O=C1NC(NCC(O)C2CCCCC2)=N/C1=C\c1ccc2ncsc2c1 (racemic) ?
0.299

Can you look up IC50 on Dual specificity protein kinase CLK3 (Homo sapiens, UniProt P49761) for O=C1NC(NCc2ccccc2OC(F)(F)F)=N/C1=C\c1ccc2ncsc2c1 ?
2.87

Can you look up IC50 on Dual specificity protein kinase CLK3 (Homo sapiens, UniProt P49761) for O=C1NC(N[C@H]2CC[C@H](O)CC2)=N/C1=C\c1ccc2ncsc2c1 ?
0.392

Can you look up IC50 on Dual specificity protein kinase CLK3 (Homo sapiens, UniProt P49761) for O=C1NC(N[C@@H]2CCOC2)=N/C1=C\c1ccc2ncsc2c1 ?
0.747

Can you look up IC50 on Dual specificity protein kinase CLK3 (Homo sapiens, UniProt P49761) for Cn1ncc2cccc(NC3=N/C(=C\c4ccc5ncsc5c4)C(=O)N3)c21 ?
1.55

Can you look up IC50 on Dual specificity protein kinase CLK3 (Homo sapiens, UniProt P49761) for O=C1NC(NC2CCCCC2)=N/C1=C\c1ccc2c(c1)CCO2 ?
5.38

Can you look up IC50 on Dual specificity protein kinase CLK3 (Homo sapiens, UniProt P49761) for CC1(C)C2CCC1(C)[C@H](NC1=N/C(=C\c3ccc4ncsc4c3)C(=O)N1)C2 (stereo not given in full) ?
0.738

Can you look up IC50 on Dual specificity protein kinase CLK3 (Homo sapiens, UniProt P49761) for O=C1NC(NC2CC3(CCC3)C2)=N/C1=C\c1ccc2ncsc2c1 ?
0.212

Can you look up IC50 on Dual specificity protein kinase CLK3 (Homo sapiens, UniProt P49761) for O=C1NC(NC2CC23CCCCC3)=N/C1=C\c1ccc2ncsc2c1 (stereo not given) ?
0.341

Can you look up IC50 on Dual specificity protein kinase CLK3 (Homo sapiens, UniProt P49761) for CN1CCN(c2cnc(NC3=N/C(=C\c4ccc5ncsc5c4)C(=O)N3)cn2)CC1 ?
2.13

Can you look up IC50 on Dual specificity protein kinase CLK3 (Homo sapiens, UniProt P49761) for CN1CCCC(NC2=N/C(=C\c3ccc4ncsc4c3)C(=O)N2)C1=O (racemic) ?
2.81

Can you look up IC50 on Dual specificity protein kinase CLK3 (Homo sapiens, UniProt P49761) for O=C1NC(N[C@H]2CCOC2)=N/C1=C\c1ccc2ncsc2c1 ?
0.405
